Target: T-type calcium channel α1H (Cav3.2) (Homo sapiens)
Construct: expressed in transfected cells; host or cells: Xenopus laevis unfertilized oocytes injected with cRNA (pGEM-HEA linearised with AflII, T7 transcription)
Sequence (O95180 whole entry): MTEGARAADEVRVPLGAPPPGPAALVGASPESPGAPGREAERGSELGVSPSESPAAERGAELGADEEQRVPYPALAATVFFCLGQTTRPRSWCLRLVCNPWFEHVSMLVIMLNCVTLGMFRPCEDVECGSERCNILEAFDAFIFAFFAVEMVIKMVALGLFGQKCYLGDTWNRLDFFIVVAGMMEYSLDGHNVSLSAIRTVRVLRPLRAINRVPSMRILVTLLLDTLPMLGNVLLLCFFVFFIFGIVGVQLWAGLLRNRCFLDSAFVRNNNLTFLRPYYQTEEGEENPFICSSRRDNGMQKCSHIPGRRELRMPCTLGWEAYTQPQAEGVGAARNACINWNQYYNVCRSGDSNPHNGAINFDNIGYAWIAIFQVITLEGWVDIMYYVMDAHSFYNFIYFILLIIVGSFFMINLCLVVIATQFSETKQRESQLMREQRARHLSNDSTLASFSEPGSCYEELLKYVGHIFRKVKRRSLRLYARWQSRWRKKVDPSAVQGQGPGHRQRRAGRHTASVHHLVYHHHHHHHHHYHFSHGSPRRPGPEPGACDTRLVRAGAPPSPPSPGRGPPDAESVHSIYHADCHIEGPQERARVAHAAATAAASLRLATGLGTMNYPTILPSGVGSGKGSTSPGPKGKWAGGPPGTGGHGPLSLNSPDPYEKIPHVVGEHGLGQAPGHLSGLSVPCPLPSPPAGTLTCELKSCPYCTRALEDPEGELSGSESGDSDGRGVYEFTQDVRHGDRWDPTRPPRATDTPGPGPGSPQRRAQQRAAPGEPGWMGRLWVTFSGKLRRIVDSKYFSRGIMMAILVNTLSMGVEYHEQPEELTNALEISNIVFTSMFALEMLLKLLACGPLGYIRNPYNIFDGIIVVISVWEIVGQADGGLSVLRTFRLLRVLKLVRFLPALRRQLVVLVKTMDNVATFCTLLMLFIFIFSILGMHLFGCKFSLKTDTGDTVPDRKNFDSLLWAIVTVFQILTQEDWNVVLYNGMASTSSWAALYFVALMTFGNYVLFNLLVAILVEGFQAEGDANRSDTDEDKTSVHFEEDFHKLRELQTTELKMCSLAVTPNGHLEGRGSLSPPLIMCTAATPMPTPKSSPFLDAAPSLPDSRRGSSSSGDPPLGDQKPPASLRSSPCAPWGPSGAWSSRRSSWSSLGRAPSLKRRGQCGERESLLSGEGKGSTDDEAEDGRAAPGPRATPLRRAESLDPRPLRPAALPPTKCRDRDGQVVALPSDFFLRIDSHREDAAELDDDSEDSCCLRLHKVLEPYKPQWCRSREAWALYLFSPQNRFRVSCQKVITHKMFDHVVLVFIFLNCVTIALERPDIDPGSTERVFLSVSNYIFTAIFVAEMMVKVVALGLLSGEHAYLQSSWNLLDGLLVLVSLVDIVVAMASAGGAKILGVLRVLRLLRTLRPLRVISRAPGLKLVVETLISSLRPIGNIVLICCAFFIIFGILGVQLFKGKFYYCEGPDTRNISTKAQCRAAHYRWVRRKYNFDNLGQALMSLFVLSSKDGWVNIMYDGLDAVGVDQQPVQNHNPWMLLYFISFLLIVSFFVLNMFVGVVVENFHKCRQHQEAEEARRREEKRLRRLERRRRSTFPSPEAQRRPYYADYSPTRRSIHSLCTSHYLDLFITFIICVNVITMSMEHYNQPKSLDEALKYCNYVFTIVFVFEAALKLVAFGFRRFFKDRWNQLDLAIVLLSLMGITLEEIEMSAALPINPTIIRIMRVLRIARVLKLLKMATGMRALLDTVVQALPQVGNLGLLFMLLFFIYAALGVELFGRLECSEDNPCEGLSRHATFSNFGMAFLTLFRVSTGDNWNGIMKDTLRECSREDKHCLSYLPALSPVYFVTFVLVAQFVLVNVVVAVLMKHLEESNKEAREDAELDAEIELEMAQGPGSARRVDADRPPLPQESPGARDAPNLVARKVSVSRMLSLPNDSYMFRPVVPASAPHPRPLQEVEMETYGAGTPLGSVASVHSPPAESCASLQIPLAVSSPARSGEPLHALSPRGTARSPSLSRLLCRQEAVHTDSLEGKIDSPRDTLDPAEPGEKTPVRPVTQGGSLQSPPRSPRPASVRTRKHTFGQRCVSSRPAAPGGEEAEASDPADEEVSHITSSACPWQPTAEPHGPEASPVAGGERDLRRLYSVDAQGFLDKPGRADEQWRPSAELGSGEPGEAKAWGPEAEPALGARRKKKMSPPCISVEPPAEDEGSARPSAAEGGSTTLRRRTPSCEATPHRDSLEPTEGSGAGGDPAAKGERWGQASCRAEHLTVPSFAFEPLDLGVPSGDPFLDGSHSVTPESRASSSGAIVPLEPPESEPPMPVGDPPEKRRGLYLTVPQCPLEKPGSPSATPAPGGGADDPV
Test: Two-electrode voltage clamp on Xenopus unfertilized oocytes expressing α1H T-type calcium channel
Type: cell-based
Details: test potential -20 mV from -90 mV, read-out: inhibitory effect (blocking percentage), Xenopus oocyte (α1H) at 100 μM
Protocol: […] The current of the calcium channel expressed from the Xenopus unfertilized oocytes was measured according to a two-electrode voltage clamping method. The current was measured in 10 mM Ba^2+ solution (10 mM Ba(OH)2, 90 mM NaOH, 1 mM KCl, 0.1 mM EDTA, 5 mM HEPES, pH was adjusted to 7.4 with methanesulfonic acid). […] The acquisition, storage and analysis of all data were recorded in Pentium IV computer via pCLAMP8. […]
Lab note: compare inhibition at 100 µM against 70%. Equal or greater, write MET. Smaller, write NOT MET.

[[record]]
compound = "O=C(CC1c2ccccc2N=C(N2CCCCC2)N1c1ccccc1)NCc1ccc(NS(=O)(=O)c2ccc(F)cc2)cc1 (stereo not drawn)"
cat = "MET"

[[record]]
compound = "O=C(CC1c2ccccc2N=C(N2CCCCC2)N1c1ccccc1)NCc1ccc([N+](=O)[O-])cc1 (stereo not drawn)"
cat = "MET"

[[record]]
compound = "CN1CCN(C2=Nc3ccccc3C(CC(=O)OCc3ccccc3)N2c2ccccc2)CC1 (stereo not drawn)"
cat = "NOT MET"

[[record]]
compound = "O=C(CC1c2ccccc2N=C(N2CCOCC2)N1c1ccccc1)NCc1ccccc1 (stereo not drawn)"
cat = "NOT MET"

[[record]]
compound = "O=C(CC1c2ccccc2N=C(N2CCCCC2)N1c1ccccc1)NCc1ccccc1 (stereo not drawn)"
cat = "MET"


API: above_or_equal(metric=inhibition at 100 µM, cutoff=70%) for item COCC(=O)O[C@]1(CCN(C)CCCc2nc3ccccc3[nH]2)CCc2cc(F)ccc2[C@@H]1C(C)C [Mibefradil, reference compound] MET

API: above_or_equal(metric=inhibition at 100 µM, cutoff=70%) for item Nc1ccc(CNC(=O)CC2c3ccccc3N=C(N3CCCCC3)N2c2ccccc2)cc1 (stereo not drawn) NOT MET

API: above_or_equal(metric=inhibition at 100 µM, cutoff=70%) for item CCO/C(O)=C(\C#N)C1=Nc2ccccc2C(CC(=O)OC)N1c1ccccc1 (stereo not drawn) NOT MET

Cited source for all entries: patent US7271260B2
